Reported koff values for a set of binders
biological target: T1, Recombinant Human IL-13 (R & D 213-IL-005) (human, UniProt P35225 35-146); test: SPR (Biacore 2000), mAb captured on goat anti-human surface, IL-13 (R&D) injected, 1:1 model
T1 construct: also called IL-13 antigen (R&D Systems)
T1 sequence (P35225 35-146 limits assumed): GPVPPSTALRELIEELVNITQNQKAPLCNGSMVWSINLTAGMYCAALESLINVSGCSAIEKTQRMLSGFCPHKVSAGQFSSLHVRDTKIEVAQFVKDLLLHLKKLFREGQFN
Value expressed in s⁻¹; do not type the unit.

Some binders with recorded koff:
INPUT: Sample mAb 623 (antibody, V domains shown, also called sc623) VH: EVQLVESGGGLVKPGGSLRLSCAASGFTFSNAWMSWVRQAPGKGLEWVGRIRSEIDGGTTNYAAPVKGRFTISRDDSKNTLYLQMNSLKTEDTAVYYCATDQVGAYYGDYYGMDVWGQGTTVTVSS VL: SYELTQPPSVSVSPGQTARITCSGDALPEKYAYWYQQKSGQAPVLVIYEDSKRPSGIPERFSGSSSGTMATLTISGAQVEDEADYYCHSTDSSGNHGVFGGGTKLTVLG — what was its koff?
OUTPUT: 0.00025

INPUT: Look up koff for this binder: mAb 643 (antibody, V domains shown) VH: EVQLVESGGGLVKPGGSLRLSCAASGFTFSNAWMSWVRQAPGKGLEWVGRIRSEIDGGTTNYAAPVKGRFTISRDDSKNTLYLQMNSLRTEDTAVYYCATDQVGAYYGDYYGMDVWGQGTTVTVSS VL: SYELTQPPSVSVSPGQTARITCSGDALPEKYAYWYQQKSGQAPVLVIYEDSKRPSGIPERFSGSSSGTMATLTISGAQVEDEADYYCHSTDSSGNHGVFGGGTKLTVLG
OUTPUT: 0.00029

Next:
INPUT: Recorded koff for mAb 731 (antibody, V domains shown, also called sc731) VH: EVQLLESGGGLVQPGGSLRLSCAASGFTFSSYAMSWVRQAPGKGLEWVSAFSGSGGSTYYADSVKGRFTISRDNSKNTLYLQMNSLRAEDTAVYYCVQDGLGPYFYNYGMDVWGQGTTVTVSS VL: SYELTQPPSVSVSPGQTASITCSGDKLGDKYACWFQQKPGQSPVLVIYHDSKRPSGIPERFSGSNSGDTATLTISGTQAMDEADYYCQAWDSSTYVFGTGTKVTVLG , please?
OUTPUT: 3.5e-05

Origin of values: patent US20100047253A1
